assay: clinical; conditions: human, plasma, intravenous

Compound Structure	Vd (L)
CC(=O)O[C@H]1C(=O)[C@@]2(C)[C@H]([C@H](OC(=O)c3ccccc3)[C@]3(O)C[C@H](OC(=O)[C@H](O)[C@@H](NC(=O)c4ccccc4)c4ccccc4)C(C)=C1C3(C)C)[C@]1(OC(C)=O)CO[C@@H]1C[C@@H]2O	163

###

experiment: clinical; settings: human, plasma, intravenous, 175 mg/m^2

Compound	Cmax [ng/mL]
CC(=O)O[C@H]1C(=O)[C@@]2(C)[C@H]([C@H](OC(=O)c3ccccc3)[C@]3(O)C[C@H](OC(=O)[C@H](O)[C@@H](NC(=O)c4ccccc4)c4ccccc4)C(C)=C1C3(C)C)[C@]1(OC(C)=O)CO[C@@H]1C[C@@H]2O [paclitaxel]	4820

###

assay: Pharmacokinetics of dasatinib in plasma; settings: human, plasma, oral, Cmax, Geo Mean (%CV), paclitaxel and dasatinib, Cycle 2 Day 1, N=18, dose-normalized to 100 mg
Property Name: Cmax (ng/mL)

> print(dat)
                                   compound  result.value
1  Cc1nc(Nc2ncc(C(=O)Nc3c(C)cccc3Cl)s2)cc(N2CCN(CCO)CC2)n1 [dasatinib]            78

###

experiment: clinical; conditions: human, plasma, intravenous, 175 mg/m^2

Compound Structure	Unit Abbreviation	AUC(0-t)
CC(=O)O[C@H]1C(=O)[C@@]2(C)[C@H]([C@H](OC(=O)c3ccccc3)[C@]3(O)C[C@H](OC(=O)[C@H](O)[C@@H](NC(=O)c4ccccc4)c4ccccc4)C(C)=C1C3(C)C)[C@]1(OC(C)=O)CO[C@@H]1C[C@@H]2O	ng·h/mL	15700

###

experiment: Pharmacokinetics of dasatinib in plasma; conditions: human, plasma, oral
Property Name: Tmax

> print(dat)
                                   molecule  property.name  result.value
1  Cc1nc(Nc2ncc(C(=O)Nc3c(C)cccc3Cl)s2)cc(N2CCN(CCO)CC2)n1 [dasatinib]           Tmax           2 h

###

test: clinical; conditions: human, plasma, intravenous, 175 mg/m^2

Compound Structure	MRT inf (h)
CC(=O)O[C@H]1C(=O)[C@@]2(C)[C@H]([C@H](OC(=O)c3ccccc3)[C@]3(O)C[C@H](OC(=O)[C@H](O)[C@@H](NC(=O)c4ccccc4)c4ccccc4)C(C)=C1C3(C)C)[C@]1(OC(C)=O)CO[C@@H]1C[C@@H]2O	6.7

###

experiment: clinical; details: human, plasma, intravenous

Compound Structure	MRT inf / h
CC(=O)O[C@H]1C(=O)[C@@]2(C)[C@H]([C@H](OC(=O)c3ccccc3)[C@]3(O)C[C@H](OC(=O)[C@H](O)[C@@H](NC(=O)c4ccccc4)c4ccccc4)C(C)=C1C3(C)C)[C@]1(OC(C)=O)CO[C@@H]1C[C@@H]2O	6.9

###

assay: Pharmacokinetics of dasatinib in plasma; conditions: human, plasma, oral, 100 mg, AUC(TAU), Geo Mean (%CV), dasatinib alone, Cycle 1 Day 15, N=14, dose-normalized to 100 mg, TAU = 24 h
Property Name: AUC (ng·h/mL)

> print(dat)
                         compound.structure  property.name  result.value
1  Cc1nc(Nc2ncc(C(=O)Nc3c(C)cccc3Cl)s2)cc(N2CCN(CCO)CC2)n1            AUC           478
